Value source: paper PMC10508264

assay: DPPH radical scavenging assay; type: biochemical
pIC50: −log10 of the molar value.
compounds and their reported pIC50

COMPOUND	pIC50
[Co+2].[O-]c1ccccc1N=Cc1ccc(N2CCOCC2)cc1.[O-]c1ccccc1N=Cc1ccc(N2CCOCC2)cc1.c1ccc(-c2ccccn2)nc1	3.70
O=C1O[C@H]([C@@H](O)CO)C(O)=C1O [Ascorbic acid, ascorbic acid, reference compound]	4.10

----------
Entries and their ΔTm values follow.
system: CT-DNA; experiment: DNA thermal denaturation / biothermodynamic properties; assay type: binding; conditions: adduct vs CT-DNA alone
QUANTITY_MEASURED: ΔTm (°C)

COMPOUND	QUANTITY_MEASURED	RESULT_UNITS	RESULT_NUMBER
[Co+2].[O-]c1ccccc1N=Cc1ccc(N2CCOCC2)cc1.[O-]c1ccccc1N=Cc1ccc(N2CCOCC2)cc1.c1ccc(-c2ccccn2)nc1 [(2)]	ΔTm	°C	10
CC[n+]1c(-c2ccccc2)c2cc(N)ccc2c2ccc(N)cc21 [EB, ethidium bromide, reference compound]	ΔTm	°C	13
Oc1ccccc1N=Cc1ccc(N2CCOCC2)cc1 [(HL), 2-(4-morpholinobenzylideneamino)phenol]	ΔTm	°C	6
[Mn+2].[O-]c1ccccc1N=Cc1ccc(N2CCOCC2)cc1.[O-]c1ccccc1N=Cc1ccc(N2CCOCC2)cc1.c1ccc(-c2ccccn2)nc1 [(1)]	ΔTm	°C	8
[Ni+2].[O-]c1ccccc1N=Cc1ccc(N2CCOCC2)cc1.[O-]c1ccccc1N=Cc1ccc(N2CCOCC2)cc1.c1ccc(-c2ccccn2)nc1 [(3)]	ΔTm	°C	9

----------
experiment: Shake flask n-octanol/deionized water partition (lipophilicity); type: physicochemical; conditions: n-octanol phase
QUANTITY_MEASURED: Concentration, organic layer (µM)

STRUCTURE_AS_SMILES	RESULT_UNITS	RESULT_NUMBER
Oc1ccccc1N=Cc1ccc(N2CCOCC2)cc1	µM	11000
[Co+2].[O-]c1ccccc1N=Cc1ccc(N2CCOCC2)cc1.[O-]c1ccccc1N=Cc1ccc(N2CCOCC2)cc1.c1ccc(-c2ccccn2)nc1	µM	400
[Mn+2].[O-]c1ccccc1N=Cc1ccc(N2CCOCC2)cc1.[O-]c1ccccc1N=Cc1ccc(N2CCOCC2)cc1.c1ccc(-c2ccccn2)nc1	µM	23500
[Ni+2].[O-]c1ccccc1N=Cc1ccc(N2CCOCC2)cc1.[O-]c1ccccc1N=Cc1ccc(N2CCOCC2)cc1.c1ccc(-c2ccccn2)nc1	µM	18500

----------
test system: CT-DNA; test: DNA binding by UV-vis absorption titration; conditions: Tris-HCl pH 7.4, 25 °C
% H (hypochromism) overview

COMPOUND	% H (hypochromism) / %
[Mn+2].[O-]c1ccccc1N=Cc1ccc(N2CCOCC2)cc1.[O-]c1ccccc1N=Cc1ccc(N2CCOCC2)cc1.c1ccc(-c2ccccn2)nc1 [(1)]	40.61
[Ni+2].[O-]c1ccccc1N=Cc1ccc(N2CCOCC2)cc1.[O-]c1ccccc1N=Cc1ccc(N2CCOCC2)cc1.c1ccc(-c2ccccn2)nc1 [(3)]	43.46
Oc1ccccc1N=Cc1ccc(N2CCOCC2)cc1 [(HL), 2-(4-morpholinobenzylideneamino)phenol]	37.13
[Co+2].[O-]c1ccccc1N=Cc1ccc(N2CCOCC2)cc1.[O-]c1ccccc1N=Cc1ccc(N2CCOCC2)cc1.c1ccc(-c2ccccn2)nc1 [(2)]	36.16

----------
biological target: BSA (Bos taurus, UniProt P02769); format: binding, bovine; conditions: T = 298 K

STRUCTURE_AS_SMILES	TARGET	Gibb's free energy change of BSA binding
[Ni+2].[O-]c1ccccc1N=Cc1ccc(N2CCOCC2)cc1.[O-]c1ccccc1N=Cc1ccc(N2CCOCC2)cc1.c1ccc(-c2ccccn2)nc1	BSA (Bos taurus, UniProt P02769)	-5.81417 kcal/mol
[Mn+2].[O-]c1ccccc1N=Cc1ccc(N2CCOCC2)cc1.[O-]c1ccccc1N=Cc1ccc(N2CCOCC2)cc1.c1ccc(-c2ccccn2)nc1	BSA (Bos taurus, UniProt P02769)	-5.5827 kcal/mol
[Co+2].[O-]c1ccccc1N=Cc1ccc(N2CCOCC2)cc1.[O-]c1ccccc1N=Cc1ccc(N2CCOCC2)cc1.c1ccc(-c2ccccn2)nc1	BSA (Bos taurus, UniProt P02769)	-6.12271 kcal/mol
Oc1ccccc1N=Cc1ccc(N2CCOCC2)cc1	BSA (Bos taurus, UniProt P02769)	-5.28791 kcal/mol

----------
In this section we review reported Kapp (apparent binding constant) values for a set of compounds.
system: EB–DNA; test: EB–DNA competitive fluorescence emission titration; assay type: binding; conditions: KEB = 10^7 M^−1 at 50 μM EB

COMPOUND	RESULT_UNITS	Kapp (apparent binding constant)
[Ni+2].[O-]c1ccccc1N=Cc1ccc(N2CCOCC2)cc1.[O-]c1ccccc1N=Cc1ccc(N2CCOCC2)cc1.c1ccc(-c2ccccn2)nc1 [(3)]	M⁻¹	7.34e+06
[Co+2].[O-]c1ccccc1N=Cc1ccc(N2CCOCC2)cc1.[O-]c1ccccc1N=Cc1ccc(N2CCOCC2)cc1.c1ccc(-c2ccccn2)nc1 [(2)]	M⁻¹	8.349e+06
[Mn+2].[O-]c1ccccc1N=Cc1ccc(N2CCOCC2)cc1.[O-]c1ccccc1N=Cc1ccc(N2CCOCC2)cc1.c1ccc(-c2ccccn2)nc1 [(1)]	M⁻¹	5.926e+06
Oc1ccccc1N=Cc1ccc(N2CCOCC2)cc1 [(HL), 2-(4-morpholinobenzylideneamino)phenol]	M⁻¹	5.829e+06

----------
test: Shake flask n-octanol/deionized water partition (lipophilicity); format: physicochemical; details: deionised water phase
A collection of compounds and their measured Concentration, aqueous layer

STRUCTURE_AS_SMILES	RESULT_UNITS	Concentration, aqueous layer
Oc1ccccc1N=Cc1ccc(N2CCOCC2)cc1	µM	900
[Co+2].[O-]c1ccccc1N=Cc1ccc(N2CCOCC2)cc1.[O-]c1ccccc1N=Cc1ccc(N2CCOCC2)cc1.c1ccc(-c2ccccn2)nc1	µM	12000
[Ni+2].[O-]c1ccccc1N=Cc1ccc(N2CCOCC2)cc1.[O-]c1ccccc1N=Cc1ccc(N2CCOCC2)cc1.c1ccc(-c2ccccn2)nc1	µM	1250
[Mn+2].[O-]c1ccccc1N=Cc1ccc(N2CCOCC2)cc1.[O-]c1ccccc1N=Cc1ccc(N2CCOCC2)cc1.c1ccc(-c2ccccn2)nc1	µM	1600

----------
test system: Aspergillus niger; assay: Agar disc diffusion, strain H; format: cell-based; settings: control 6 mm
Measured Diameter of clear zone inhibition, listed per entry.

COMPOUND	Diameter of clear zone inhibition / mm
CC(=O)N1CCN(c2ccc(OCC3COC(Cn4ccnc4)(c4ccc(Cl)cc4Cl)O3)cc2)CC1 (stereo not drawn) [Ketoconazole, ketoconazole, reference compound]	16
[Mn+2].[O-]c1ccccc1N=Cc1ccc(N2CCOCC2)cc1.[O-]c1ccccc1N=Cc1ccc(N2CCOCC2)cc1.c1ccc(-c2ccccn2)nc1	12
Oc1ccccc1N=Cc1ccc(N2CCOCC2)cc1	10
[Co+2].[O-]c1ccccc1N=Cc1ccc(N2CCOCC2)cc1.[O-]c1ccccc1N=Cc1ccc(N2CCOCC2)cc1.c1ccc(-c2ccccn2)nc1	12
[Ni+2].[O-]c1ccccc1N=Cc1ccc(N2CCOCC2)cc1.[O-]c1ccccc1N=Cc1ccc(N2CCOCC2)cc1.c1ccc(-c2ccccn2)nc1	12
C[C@@H]1[C@H](O)[C@@H](C)/C=C/C=C/C=C/C=C/C=C/C=C/C=C/[C@H](O[C@@H]2O[C@H](C)[C@@H](O)[C@H](N)[C@@H]2O)C[C@@H]2O[C@](O)(C[C@@H](O)C[C@@H](O)[C@H](O)CC[C@@H](O)C[C@@H](O)CC(=O)O[C@H]1C)C[C@H](O)[C@H]2C(=O)O [Amphotericin B, amphotericin B, reference compound]	15

----------
Catalogue of B (average brightness of complex–BSA system) readings, one per entry.
target: BSA (Bos taurus); experiment: FRET computation, donor (BSA)–acceptor (compound); type: binding, bovine; conditions: free BSA 6573.60
QUANTITY_MEASURED: B (average brightness of complex–BSA system) (M⁻¹ cm⁻¹)

COMPOUND	RESULT_NUMBER
[Ni+2].[O-]c1ccccc1N=Cc1ccc(N2CCOCC2)cc1.[O-]c1ccccc1N=Cc1ccc(N2CCOCC2)cc1.c1ccc(-c2ccccn2)nc1 [(3)]	5822.04
[Mn+2].[O-]c1ccccc1N=Cc1ccc(N2CCOCC2)cc1.[O-]c1ccccc1N=Cc1ccc(N2CCOCC2)cc1.c1ccc(-c2ccccn2)nc1 [(1)]	6007.23
[Co+2].[O-]c1ccccc1N=Cc1ccc(N2CCOCC2)cc1.[O-]c1ccccc1N=Cc1ccc(N2CCOCC2)cc1.c1ccc(-c2ccccn2)nc1 [(2)]	5835.99
Oc1ccccc1N=Cc1ccc(N2CCOCC2)cc1 [(HL), 2-(4-morpholinobenzylideneamino)phenol]	5339.79

----------
system: CT-DNA; experiment: DNA thermal denaturation / biothermodynamic properties; assay type: binding; conditions: 1:1 ratio (50 μM), free CT-DNA 68 °C
Documented Tm of DNA–substance adduct across a set of molecules

STRUCTURE_AS_SMILES	Tm of DNA–substance adduct (°C)
[Ni+2].[O-]c1ccccc1N=Cc1ccc(N2CCOCC2)cc1.[O-]c1ccccc1N=Cc1ccc(N2CCOCC2)cc1.c1ccc(-c2ccccn2)nc1	77
[Mn+2].[O-]c1ccccc1N=Cc1ccc(N2CCOCC2)cc1.[O-]c1ccccc1N=Cc1ccc(N2CCOCC2)cc1.c1ccc(-c2ccccn2)nc1	76
Oc1ccccc1N=Cc1ccc(N2CCOCC2)cc1	74
[Co+2].[O-]c1ccccc1N=Cc1ccc(N2CCOCC2)cc1.[O-]c1ccccc1N=Cc1ccc(N2CCOCC2)cc1.c1ccc(-c2ccccn2)nc1	78
